Parameter A.baumannii MIC: see the listing below.
Tested on: A. baumannii ATCC 19606
Assay Info: Broth microdilution MIC
Format: cell-based, Acinetobacter baumannii
Condition Notes: A. baumannii ATCC 19606, Müller-Hinton medium, 16–20 h at 37 °C; at least two independent duplicates

Example entries and their recorded answers appear below.
KYKKALKKLAKLL [sr^3/1-SB1] | >64 µg/mL
ILPWKWPWWPWRR [sr-Indo] | 8 µg/mL
VQWRAIRVRVIR [sr-DJK5] | >64 µg/mL
KYKKALKKLAKLL [sr^1/3-SB1] | >64 µg/mL
KYKKALKKLAKLL [rac-SB1] | 2 µg/mL

From here, focus on the item given below.
Data request, read-out A.baumannii MIC, for KYKKALKKLAKLL [sr-SB1]
>64 µg/mL
